Data origin: ChEMBL document CHEMBL1955849

# experiment summary: Solubility of the compound in water
# Format: physicochemical
quantity measured: solubility

Reference set (2 entries):
{"structure smiles": "NS(=O)(=O)c1ccc(NC(=S)N[C@@H]2O[C@H](CO)[C@@H](O[C@@H]3O[C@H](CO)[C@H](O)[C@H](O)[C@H]3O)[C@H](O)[C@H]2O)cc1", "solubility": "> 20 mg/mL"}
{"structure smiles": "NS(=O)(=O)c1ccc(CCNC(=S)N[C@@H]2O[C@H](CO)[C@@H](O[C@@H]3O[C@H](CO)[C@H](O)[C@H](O)[C@H]3O)[C@H](O)[C@H]2O)cc1", "solubility": "> 20 mg/mL"}

Please find the next compound below.
The reported solubility of the compound NS(=O)(=O)c1ccc(C(=O)NNC(=S)N[C@@H]2O[C@H](CO)[C@H](O)[C@H](O)[C@H]2O)cc1 was > 20 mg/mL
